tested on: 786-0 renal; test: NCI tumour cell line growth inhibition, 48 h
Would you mind telling me the reported TGI of each entry?

Use these answered entries as a reference point.
O=c1c2c(no[n+]2[O-])c2ccccc2n1-c1ccccc1
9.97 µM
O=[N+]([O-])c1cccnc1N=Nc1c(O)[nH]c2ccccc12
52 µM
CN(C)Cc1cc(C(=O)/C=C/c2ccc([N+](=O)[O-])cc2)cc(CN(C)C)c1O
15.2 µM
CN1CCN(Cc2cc3c(nn2)-c2ccccc2C3=O)CC1
> 100 µM
CC(C)(C)c1ccc2c(c1)C#Cc1cc3c(cc1OCCCO2)C#Cc1cc(C(C)(C)C)ccc1OCCCO3
> 100 µM

For each of the items listed, what is its TGI?
1. C[C@H](CCOc1cccc(CC(=O)O)c1)N(Cc1cccc(C(F)(F)F)c1Cl)CC(c1ccccc1)c1ccccc1
2. O=C(CC(=O)Nc1ccccc1)NNC(Sc1ccccc1)c1cc(N=Nc2ccc(Br)cc2)ccc1O (stereo unspecified)
3. COc1cc(OC)c(OC)cc1/C=N/NC(=O)N/N=C/c1cc(OC)c(OC)cc1OC
4. Cc1c2c(c(C)n1-c1ccccc1)C(=O)N(CCN1CCN(c3cccc(C(F)(F)F)c3)CC1)C2=O
5. Nc1ncnc2c1ccn2C/C=C/CO
6. [N-]=[N+]=NC1(c2ccccc2)C(=O)c2cccc3c2N(CCC3)C1=O (stereo unspecified)
7. Cc1ccnc(NC(=S)Nc2ccc([N+](=O)[O-])cc2)c1

output:
1. 19.4 µM
2. > 10 µM
3. > 100 µM
4. > 100 µM
5. > 100 µM
6. > 100 µM
7. > 100 µM
